Attribution: ChEMBL document CHEMBL3616441

Reported Activity values are given for each entry in this list.
molecular target: Metabotropic glutamate receptor 3 (Rattus norvegicus); test: Negative allosteric modulation of rat mGlu3 receptor assessed as amplitude response at 30 uM relative to glutamate
Write the answer as a number in %, unit excluded.

Use these answered entries as a reference point.
• C[C@@H]1CN(c2cc(F)cc(C#N)c2)C(=O)c2cc(COc3ccc(Cl)cn3)nn21 = 1.92
• C[C@@H]1CN(c2ccc(F)cc2)C(=O)c2cc(COc3ncccc3F)nn21 = 2.22

Hi! What's the reported Activity for C[C@@H]1CN(c2cccc(F)c2F)C(=O)c2cc(COc3ccc(Cl)cn3)nn21 on Metabotropic glutamate receptor 3 (Rattus norvegicus)?
0.33

Ok, now Cc1cccc(N2C[C@@H](C)n3nc(COc4ccc(Cl)cn4)cc3C2=O)c1
1.71

Ok, now Cc1ccccc1OCc1cc2n(n1)[C@H](C)CN(c1ccc(F)cc1)C2=O
1.56

====

Reported Activity values are given for each entry in this list.
target: Metabotropic glutamate receptor 5 (Rattus norvegicus); experiment: Modulation of rat mGlu5 receptor assessed as assessed as calcium mobilization at 30 uM by cell based fluorescence assay; format: functional
Write the answer as a number in %, unit excluded.

- C[C@@H]1CN(c2ccc(F)cc2)C(=O)c2cc(COc3ccccc3F)nn21: 89.3
- C[C@@H]1CN(c2cc(F)cc(C#N)c2)C(=O)c2cc(COc3ccc(Cl)cn3)nn21: 28
- C[C@@H]1CN(c2ccc(F)cc2)C(=O)c2cc(COc3cccc(Cl)c3)nn21: 32.8

Field request: Activity | item: C[C@@H]1CN(c2ccc(F)nc2)C(=O)c2cc(COc3ccc(Cl)cn3)nn21
30.6

====

test: Cmax in rat at 10 mg/kg, ip; assay type: ADME, organism-based; design: dose 10 mg/kg, route intraperitoneal; conditions: in vivo
endpointName: Cmax (µM)
Write the answer as a number in µM, unit excluded.

Field request: Cmax | item: C[C@@H]1CN(c2cccnc2F)C(=O)c2cc(COc3ccc(Cl)cn3)nn21
4.57

====

assay: Volume of distribution at steady state in rat at 1 mg/kg, iv and 3 mg/kg, po; assay type: ADME, organism-based; conditions: in vivo, read-out: Vdss
endpointName: Vd

Field request: Vd | item: C[C@@H]1CN(c2cccnc2F)C(=O)c2cc(COc3ccc(Cl)cn3)nn21
1.4 L/kg

====

molecular target: Metabotropic glutamate receptor 3 (Rattus norvegicus, UniProt P31422); assay: Negative allosteric modulation of rat mGlu3 receptor assessed as calcium mobilization by cell based fluorescence assay
Sequence (P31422 whole entry): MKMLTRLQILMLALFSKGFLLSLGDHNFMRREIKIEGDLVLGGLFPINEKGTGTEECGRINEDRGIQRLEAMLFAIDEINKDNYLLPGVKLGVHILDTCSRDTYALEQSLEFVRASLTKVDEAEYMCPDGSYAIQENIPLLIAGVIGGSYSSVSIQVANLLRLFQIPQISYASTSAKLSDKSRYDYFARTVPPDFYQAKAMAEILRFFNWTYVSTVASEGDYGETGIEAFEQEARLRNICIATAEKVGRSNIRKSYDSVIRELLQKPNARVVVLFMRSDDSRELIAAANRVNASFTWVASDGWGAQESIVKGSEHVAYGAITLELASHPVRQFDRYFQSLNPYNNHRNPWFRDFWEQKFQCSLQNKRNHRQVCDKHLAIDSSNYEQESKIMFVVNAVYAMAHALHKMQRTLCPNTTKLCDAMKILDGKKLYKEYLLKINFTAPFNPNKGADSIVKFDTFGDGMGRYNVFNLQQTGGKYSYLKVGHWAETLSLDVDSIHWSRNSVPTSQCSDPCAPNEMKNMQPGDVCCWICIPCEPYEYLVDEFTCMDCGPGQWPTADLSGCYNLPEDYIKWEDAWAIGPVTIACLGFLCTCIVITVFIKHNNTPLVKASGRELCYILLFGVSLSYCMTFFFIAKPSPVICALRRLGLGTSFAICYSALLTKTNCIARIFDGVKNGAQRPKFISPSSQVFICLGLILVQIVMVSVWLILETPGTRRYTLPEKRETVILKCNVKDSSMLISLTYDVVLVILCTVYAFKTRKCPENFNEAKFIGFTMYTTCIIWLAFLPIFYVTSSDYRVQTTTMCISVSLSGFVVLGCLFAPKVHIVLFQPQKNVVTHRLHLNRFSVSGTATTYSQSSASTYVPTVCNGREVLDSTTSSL
Reported pIC50 values are given for each entry in this list.
Please express pIC50 as -log10 of the molar concentration.

• C[C@@H]1CN(c2cccc(C#N)c2)C(=O)c2cc(COc3ccc(Cl)cn3)nn21 = 6.08
• C[C@@H]1CN(c2ccc(F)cc2F)C(=O)c2cc(COc3ccc(Cl)cn3)nn21 = 6.55
• C[C@@H]1CN(c2ccc(F)cc2)C(=O)c2cc(COc3ccc(F)cc3)nn21 = 6.34
• C[C@@H]1CN(c2ccncc2)C(=O)c2cc(COc3ccc(F)cn3)nn21 = 6.06
• Cc1ccccc1OCc1cc2n(n1)[C@H](C)CN(c1ccc(F)cc1)C2=O = 6.14
• C[C@@H]1CN(c2cnccc2F)C(=O)c2cc(COc3ccc(Cl)cn3)nn21 = 6.32
• Cc1ccc(N2C[C@@H](C)n3nc(COc4ccc(Cl)cn4)cc3C2=O)cc1 = 6.39
• C[C@@H]1CN(c2ccc(F)cc2)C(=O)c2cc(COc3cccc(C(F)(F)F)n3)nn21 = 5.63
• COc1ccccc1N1C[C@@H](C)n2nc(COc3ccc(Cl)cn3)cc2C1=O = 6.16

Okay, next one:
Hi! What's the reported pIC50 for C[C@@H]1CN(c2ccccc2F)C(=O)c2cc(COc3ccc(Cl)cn3)nn21 on Metabotropic glutamate receptor 3 (Rattus norvegicus, UniProt P31422)?
6.65

====

biological target: Metabotropic glutamate receptor 5 (Rattus norvegicus); assay: Modulation of rat mGlu5 receptor assessed as assessed as calcium mobilization at 30 uM by cell based fluorescence assay; format: functional
Hi! Could you tag entries with Activity below 50% as MET, and those at or above as NOT MET? Much appreciated.

# strict comparison: is reported Activity < 50%? input = COc1ccccc1N1C[C@@H](C)n2nc(COc3ccc(Cl)cn3)cc2C1=O
NOT MET

Ok, now Cc1ccc(N2C[C@@H](C)n3nc(COc4ccc(F)cn4)cc3C2=O)cc1
NOT MET

Ok, now C[C@@H]1CN(c2ccc(F)cc2)C(=O)c2cc(COc3ccc(Cl)cc3)nn21
NOT MET

====

molecular target: Metabotropic glutamate receptor 3 (Rattus norvegicus); assay: Negative allosteric modulation of rat mGlu3 receptor assessed as calcium mobilization by cell based fluorescence assay; type: functional
pIC50: −log10 of the molar value.
Threshold rule: pIC50 greater than or equal to 6 is class 1; below that, class 0.

• C[C@@H]1CN(c2ccc(F)cc2)C(=O)c2cc(COc3ccc(C(F)(F)F)cc3)nn21 = class 0
• C[C@@H]1CN(c2ccc(Cl)cc2)C(=O)c2cc(COc3ccc(F)cn3)nn21 = class 1
• C[C@@H]1CN(c2ccc(F)cn2)C(=O)c2cc(COc3ccc(Cl)cn3)nn21 = class 1
• C[C@@H]1CN(c2cccc(F)c2)C(=O)c2cc(COc3ccc(F)cn3)nn21 = class 1
• C[C@@H]1CN(c2cccnc2)C(=O)c2cc(COc3ccc(F)cn3)nn21 = class 1

Below: the item to evaluate.
# bool: pIC50 of C[C@@H]1CN(c2ccc(F)cc2)C(=O)c2cc(COc3ccccc3F)nn21 >= 6
class 1

====

Reported Activity values are given for each entry in this list.
biological target: Metabotropic glutamate receptor 5 (Rattus norvegicus); test: Modulation of rat mGlu5 receptor assessed as assessed as calcium mobilization at 30 uM by cell based fluorescence assay; assay type: functional

Use these answered entries as a reference point.
* COc1ccccc1OCc1cc2n(n1)[C@H](C)CN(c1ccc(F)cc1)C2=O | 63.7%
* C[C@@H]1CN(c2c(F)cccc2F)C(=O)c2cc(COc3ccc(F)cn3)nn21 | 50.8%
* COc1ccc(N2C[C@@H](C)n3nc(COc4ccc(F)cn4)cc3C2=O)cc1 | 32.3%
* C[C@@H]1CN(c2ccc(Cl)cc2)C(=O)c2cc(COc3ccc(F)cn3)nn21 | 51.6%

Okay, next one:
Hi! What's the reported Activity for COc1ccc(OCc2cc3n(n2)[C@H](C)CN(c2ccc(F)cc2)C3=O)cc1 on Metabotropic glutamate receptor 5 (Rattus norvegicus)?
40.2%

====

assay: Cmax in mouse at 10 mg/kg, ip; type: ADME, organism-based; set-up: dose 10 mg/kg, route intraperitoneal; details: in vivo
endpointName: Cmax (µM)
Write the answer as a number in µM, unit excluded.

Field request: Cmax | item: C[C@@H]1CN(c2cccnc2F)C(=O)c2cc(COc3ccc(Cl)cn3)nn21
4.48

====

molecular target: UniProtKB P31422; assay: Negative allosteric modulation of rat mGlu3 receptor assessed as calcium mobilization by cell based fluorescence assay
Reported pIC50 values are given for each entry in this list.
Please express pIC50 as -log10 of the molar concentration.

Use these answered entries as a reference point.
- C[C@@H]1CN(c2cccc(Cl)c2)C(=O)c2cc(COc3ccc(F)cn3)nn21: 6.84
- C[C@@H]1CN(c2ccc(F)cn2)C(=O)c2cc(COc3ccc(F)cn3)nn21: 6.46
- C[C@@H]1CN(c2ccc(F)cc2)C(=O)c2cc(COc3ccc(F)cn3)nn21: 6.27

Field request: pIC50 | item: Cc1cccc(N2C[C@@H](C)n3nc(COc4ccc(Cl)cn4)cc3C2=O)c1
6.41

Ok, now C[C@@H]1CN(c2cc(F)ccc2F)C(=O)c2cc(COc3ccc(F)cn3)nn21
6.91

Ok, now COc1cccc(N2C[C@@H](C)n3nc(COc4ccc(Cl)cn4)cc3C2=O)c1
6.50

====

target: Cytochrome P450 1A2 (Homo sapiens, UniProt P05177); test: Inhibition of CYP1A2 in human liver microsomes by cocktail assay; type: ADME
Sequence (P05177 whole entry): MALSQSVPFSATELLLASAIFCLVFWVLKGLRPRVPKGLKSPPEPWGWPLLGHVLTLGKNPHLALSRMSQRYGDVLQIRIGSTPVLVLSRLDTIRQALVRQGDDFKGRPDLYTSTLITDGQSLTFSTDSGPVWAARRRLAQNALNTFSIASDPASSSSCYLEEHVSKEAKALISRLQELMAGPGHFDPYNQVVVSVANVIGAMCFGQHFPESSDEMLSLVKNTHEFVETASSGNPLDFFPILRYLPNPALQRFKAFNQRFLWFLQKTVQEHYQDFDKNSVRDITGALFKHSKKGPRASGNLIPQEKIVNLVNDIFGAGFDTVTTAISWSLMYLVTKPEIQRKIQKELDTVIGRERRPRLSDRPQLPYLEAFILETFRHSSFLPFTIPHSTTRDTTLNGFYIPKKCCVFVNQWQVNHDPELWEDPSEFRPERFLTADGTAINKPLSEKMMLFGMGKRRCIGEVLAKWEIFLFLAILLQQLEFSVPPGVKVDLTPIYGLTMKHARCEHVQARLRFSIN
endpointName: IC50

Field request: IC50 | item: C[C@@H]1CN(c2cccnc2F)C(=O)c2cc(COc3ccc(Cl)cn3)nn21
> 30 µM

====

biological target: Metabotropic glutamate receptor 5 (Rattus norvegicus, UniProt P31424); test: Modulation of rat mGlu5 receptor assessed as calcium mobilization by cell based fluorescence assay
Sequence (P31424 whole entry): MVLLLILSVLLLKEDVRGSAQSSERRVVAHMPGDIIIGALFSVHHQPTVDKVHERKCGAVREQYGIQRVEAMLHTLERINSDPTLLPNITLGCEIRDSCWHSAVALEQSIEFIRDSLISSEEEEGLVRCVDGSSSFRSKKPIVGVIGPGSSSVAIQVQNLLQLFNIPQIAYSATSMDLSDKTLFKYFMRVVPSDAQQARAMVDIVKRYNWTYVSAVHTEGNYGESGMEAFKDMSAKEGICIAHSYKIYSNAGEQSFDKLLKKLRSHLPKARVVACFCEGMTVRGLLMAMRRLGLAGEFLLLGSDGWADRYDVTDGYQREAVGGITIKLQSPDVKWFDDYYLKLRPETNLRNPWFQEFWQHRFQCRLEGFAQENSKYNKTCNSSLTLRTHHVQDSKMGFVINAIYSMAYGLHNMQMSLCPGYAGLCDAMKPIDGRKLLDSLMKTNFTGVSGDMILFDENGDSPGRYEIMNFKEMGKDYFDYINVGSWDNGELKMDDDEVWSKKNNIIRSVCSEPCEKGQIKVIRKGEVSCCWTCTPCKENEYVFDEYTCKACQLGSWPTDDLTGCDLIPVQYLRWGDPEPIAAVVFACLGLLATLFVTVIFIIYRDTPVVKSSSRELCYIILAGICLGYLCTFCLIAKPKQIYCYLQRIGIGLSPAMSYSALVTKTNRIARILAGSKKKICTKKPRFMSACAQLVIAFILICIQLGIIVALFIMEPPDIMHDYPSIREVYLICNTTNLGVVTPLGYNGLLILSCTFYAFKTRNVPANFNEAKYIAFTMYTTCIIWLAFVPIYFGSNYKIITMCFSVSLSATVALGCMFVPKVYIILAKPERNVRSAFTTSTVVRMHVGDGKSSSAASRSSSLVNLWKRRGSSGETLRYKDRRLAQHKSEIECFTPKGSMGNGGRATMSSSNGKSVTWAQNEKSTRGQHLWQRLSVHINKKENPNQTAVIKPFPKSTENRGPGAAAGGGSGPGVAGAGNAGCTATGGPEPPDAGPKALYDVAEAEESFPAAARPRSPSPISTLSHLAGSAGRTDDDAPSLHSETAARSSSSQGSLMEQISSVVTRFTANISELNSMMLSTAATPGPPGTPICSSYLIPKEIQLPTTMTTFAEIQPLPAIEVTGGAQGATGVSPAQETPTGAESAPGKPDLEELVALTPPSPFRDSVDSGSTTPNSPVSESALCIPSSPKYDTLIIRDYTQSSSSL
endpointName: EC50 (µM)
Write the answer as a number in µM, unit excluded.

* C[C@@H]1CN(c2cccc(F)c2)C(=O)c2cc(COc3ccc(Cl)cn3)nn21 | 5.97

Okay, next one:
Field request: EC50 | item: C[C@@H]1CN(c2ccc(F)cc2)C(=O)c2cc(COc3ccccc3)nn21
0.046

====

Reported Activity values are given for each entry in this list.
target: Metabotropic glutamate receptor 5 (Rattus norvegicus) (UniProt P31424); test: Modulation of rat mGlu5 receptor assessed as assessed as calcium mobilization at 30 uM by cell based fluorescence assay; type: functional
Sequence (P31424 21-1203 limits assumed): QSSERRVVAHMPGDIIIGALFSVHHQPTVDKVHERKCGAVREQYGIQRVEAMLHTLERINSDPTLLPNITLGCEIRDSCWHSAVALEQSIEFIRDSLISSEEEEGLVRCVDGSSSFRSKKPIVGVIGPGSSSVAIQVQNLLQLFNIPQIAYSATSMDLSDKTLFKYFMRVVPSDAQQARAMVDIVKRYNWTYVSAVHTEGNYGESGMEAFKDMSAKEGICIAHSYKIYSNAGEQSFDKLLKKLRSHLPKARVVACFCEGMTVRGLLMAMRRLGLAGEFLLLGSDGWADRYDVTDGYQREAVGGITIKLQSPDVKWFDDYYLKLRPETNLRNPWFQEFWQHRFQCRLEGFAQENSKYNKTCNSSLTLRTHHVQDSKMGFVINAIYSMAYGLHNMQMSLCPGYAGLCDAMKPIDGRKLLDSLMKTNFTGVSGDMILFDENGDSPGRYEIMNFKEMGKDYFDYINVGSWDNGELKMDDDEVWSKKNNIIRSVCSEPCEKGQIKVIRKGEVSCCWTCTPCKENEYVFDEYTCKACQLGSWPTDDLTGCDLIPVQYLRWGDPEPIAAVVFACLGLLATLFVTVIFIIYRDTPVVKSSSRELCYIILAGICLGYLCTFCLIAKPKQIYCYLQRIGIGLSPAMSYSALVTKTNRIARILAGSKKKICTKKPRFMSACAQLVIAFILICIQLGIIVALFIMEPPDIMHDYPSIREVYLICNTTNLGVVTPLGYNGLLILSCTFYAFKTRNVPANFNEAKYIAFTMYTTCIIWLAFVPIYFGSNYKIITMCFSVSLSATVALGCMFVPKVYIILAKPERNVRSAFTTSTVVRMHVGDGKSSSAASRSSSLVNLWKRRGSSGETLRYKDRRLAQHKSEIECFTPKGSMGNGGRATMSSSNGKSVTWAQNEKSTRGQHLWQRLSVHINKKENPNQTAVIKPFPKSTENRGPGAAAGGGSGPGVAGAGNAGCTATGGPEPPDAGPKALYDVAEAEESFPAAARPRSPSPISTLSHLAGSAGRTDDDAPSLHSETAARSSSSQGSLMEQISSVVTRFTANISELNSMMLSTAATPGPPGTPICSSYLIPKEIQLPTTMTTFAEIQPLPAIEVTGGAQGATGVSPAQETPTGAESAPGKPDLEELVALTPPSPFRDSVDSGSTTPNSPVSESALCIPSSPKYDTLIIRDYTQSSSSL
Write the answer as a number in %, unit excluded.

• Cc1cccc(N2C[C@@H](C)n3nc(COc4ccc(F)cn4)cc3C2=O)c1 = 36.6
• C[C@@H]1CN(c2ccc(F)cc2)C(=O)c2cc(COc3ccccc3)nn21 = 87.7
• C[C@@H]1CN(c2cc(F)cc(F)c2)C(=O)c2cc(COc3ccc(Cl)cn3)nn21 = 33.1

Field request: Activity | item: C[C@@H]1CN(c2cc(F)ccc2F)C(=O)c2cc(COc3ccc(F)cn3)nn21
18.8
